System: Mus musculus
Test: In vivo effect on Tetrabenazine motor activity in mice following i.p. administration.
Type: functional
Conditions: ip
measured-quantity: ED50

| compound | endpoint-value |
| --- | --- |
| Br.CSc1ccc(C2CN3CCCC3c3c(C)cccc32)cc1 (stereo unspecified) | > 3 mg/kg |
| FC(F)(F)c1ccc(C2CN3CCCC3c3ccccc32)cc1 (stereo unspecified) | > 3 mg/kg |
| CSc1ccc([C@@H]2CN3CCC[C@H]3c3ccccc32)cc1 | > 30 mg/kg |
| Br.CCSc1ccc(C2CN3CCCC3c3ccccc32)cc1 (stereo unspecified) | > 10 mg/kg |
| Clc1ccccc1C1CN2CCC[C@@H]2c2ccccc21 (stereo partly specified) | > 60 mg/kg |
| COc1ccccc1C1CN2CCCC2c2ccccc21 (stereo unspecified) | ~0.6 mg/kg |
| COc1ccc(OC[C@H]2CN(C)CC[C@@H]2c2ccccc2)cc1 | 3.5 mg/kg |
| CN(C)CCCN1c2ccccc2CCc2ccccc21 | 0.58 mg/kg |
| c1ccc([C@@H]2CN3CCC[C@@H]3c3ccccc32)cc1 | 0.34 mg/kg |
| CSc1ccc(C2CN3CCC[C@@H]3c3ccccc32)cc1 (stereo in doubt; 3b) | > 30 mg/kg |
| CSc1ccc(C2CN3CCC[C@H]3c3c(Cl)cccc32)cc1.Cl (stereo partly specified) | ~1 mg/kg |
| CC(=O)Nc1ccc(C2CN3CCCC3c3ccccc32)cc1 (stereo unspecified) | 0.04 mg/kg |
| Clc1ccc([C@@H]2CN3CCC[C@@H]3c3ccccc32)cc1 | 0.39 mg/kg |
| CSc1ccc(C2CN3CCC[C@@H]3c3c(Cl)cccc32)cc1.Cl (stereo partly specified) | 3 mg/kg |
| C[S+]([O-])c1ccc(C2CN3CCCC3c3ccccc32)cc1 (stereo in doubt; 11b) | > 3 mg/kg |
| CSc1ccc(C2CN3CCCC3c3ccc(Cl)cc32)cc1.Cl (stereo unspecified) | > 3 mg/kg |

* * *

Molecular target: norepinephrine transporter (Rattus norvegicus)
Assay: Tested in vitro for norepinephrine (NE) neuronal uptake inhibition
Entries and their log10 of Ki
measured-quantity: log10 of Ki (log10 of the value in µM)

| molecule | measured-quantity | endpoint-value |
| --- | --- | --- |
| Br.CSc1ccc(C2CN3CCCC3c3c(C)cccc32)cc1 (stereo not drawn) | log10 of Ki | -1.94 |
| FC(F)(F)c1ccc(C2CN3CCCC3c3ccccc32)cc1 (stereo not drawn) | log10 of Ki | -1.97 |
| CSc1ccc(C2CN3CCCC3c3ccc(Cl)cc32)cc1.Cl (stereo not drawn) | log10 of Ki | -1.79 |
| C[S+]([O-])c1ccc(C2CN3CCCC3c3ccccc32)cc1 (stereo in doubt; 11b) | log10 of Ki | -0.14 |
| Clc1ccc(C2CN3CCCC3c3cc(Cl)ccc32)cc1 (stereo not drawn) | log10 of Ki | -2.49 |
| CSc1ccc(C2CN3CCCC3c3c(C#N)cccc32)cc1.Cl (stereo not drawn) | log10 of Ki | -0.41 |
| NC(=O)c1ccc(C2CN3CCCC3c3ccccc32)cc1 (stereo not drawn) | log10 of Ki | -1.04 |
| CSc1ccc(C2CN3CCC[C@@H]3c3c(Cl)cccc32)cc1.Cl (stereo partly drawn) | log10 of Ki | -1.64 |

* * *

System: Mus musculus
Experiment: Tested in vivo for head twitches antagonizing activity in mice
Type: functional

| compound | target-system | value-qualifier | ED50 / mg/kg |
| --- | --- | --- | --- |
| CSc1ccc(C2CN3CCC[C@@H]3c3ccccc32)cc1 (single isomer, unassigned; (+)) | Mus musculus | = | 0.043 |
| C[S+]([O-])c1ccc(C2CN3CCCC3c3ccccc32)cc1 (stereo in doubt; 11a) | Mus musculus | > | 5 |
| CSc1ccc(C2CN3CCC[C@@H]3c3ccccc32)cc1 (stereo in doubt; 3b) | Mus musculus | = | 0.081 |
| C[S+]([O-])c1ccc(C2CN3CCCC3c3ccccc32)cc1 (stereo in doubt; 11b) | Mus musculus | = | 0.55 |

* * *

Here the recorded pKi is given for each entry.
Biological target: dopamine transporter (Rattus norvegicus)
Assay: Tested in vitro for dopamine(DA) neuronal uptake inhibition
pKi: −log10 of the molar value.
measured-quantity: pKi

| compound | target-system | endpoint-value |
| --- | --- | --- |
| Br.CSc1ccc(C2CN3CCCC3c3c(C)cccc32)cc1 (stereo not drawn) | dopamine transporter (Rattus norvegicus) | 7.24 |
| CSc1ccc(C2CN3CCCC3c3c(C#N)cccc32)cc1.Cl (stereo not drawn) | dopamine transporter (Rattus norvegicus) | 5.55 |
| CSc1ccc(C2CN3CCC[C@@H]3c3c(Cl)cccc32)cc1.Cl (stereo partly drawn) | dopamine transporter (Rattus norvegicus) | 6.54 |
| CSc1ccc(C2CN3CCCC3c3ccc(Cl)cc32)cc1.Cl (stereo not drawn) | dopamine transporter (Rattus norvegicus) | 6.99 |
| C[S+]([O-])c1ccc(C2CN3CCCC3c3ccccc32)cc1 (stereo in doubt; 11b) | dopamine transporter (Rattus norvegicus) | 5.21 |
| FC(F)(F)c1ccc(C2CN3CCCC3c3ccccc32)cc1 (stereo not drawn) | dopamine transporter (Rattus norvegicus) | 6.89 |
| NC(=O)c1ccc(C2CN3CCCC3c3ccccc32)cc1 (stereo not drawn) | dopamine transporter (Rattus norvegicus) | 7.07 |
| Clc1ccc(C2CN3CCCC3c3cc(Cl)ccc32)cc1 (stereo not drawn) | dopamine transporter (Rattus norvegicus) | 8.49 |

Hello, the source for this data is ChEMBL document CHEMBL1125119, in case you need it.
